These entries and their values trace back to patent US20260216170A1.

SYSTEM: Human BCL-XL protein (N-terminal HiBiT tagged BCL-XL expressed in HT1080 cells) (Homo sapiens, UniProt Q07817)
Construct: expressed in transfected cells; host or cells: HT-1080 (ATCC CCL-121), stably transduced with lentivirus pLV-UBC-N-HiBiT-BCL-XL-PGK-puro and selected with puromycin
Sequence (Q07817 whole entry): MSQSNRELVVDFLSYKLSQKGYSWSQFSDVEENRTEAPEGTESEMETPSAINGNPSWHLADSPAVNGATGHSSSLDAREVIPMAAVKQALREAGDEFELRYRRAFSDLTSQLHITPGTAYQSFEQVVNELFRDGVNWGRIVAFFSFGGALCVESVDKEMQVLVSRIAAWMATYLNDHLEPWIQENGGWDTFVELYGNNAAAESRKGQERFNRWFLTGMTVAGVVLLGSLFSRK
PROCEDURE_SUMMARY: HiBiT Based Degradation Assay
Format: cell-based
PARTICULARS: bottom of BCL-XL degradation curve (remaining HiBiT-BCL-XL signal vs DMSO control), HT1080 cells, 24 hours incubation
PROPERTY_NAME: Ymin (24 h)

The cases that follow already have their Ymin (24 h) on record.
COMPOUND	RESULT
Cc1c(OC2CCC3(CC2)CCN(CC(=O)Nc2ccc4c(C5CCC(=O)NC5=O)nn(C)c4c2)CC3)cccc1-c1ccc(N2CCc3cccc(C(=O)Nc4nc5ccccc5s4)c3C2)nc1C(=O)O (centres unmarked)	B (30% ≤ Ymin < 50%)
Cc1cc(N(C)CCCC2CCN(CC(=O)Nc3ccc4c(C5CCC(=O)NC5=O)nn(C)c4c3)CC2)ccc1-c1ccc(N2CCc3cccc(C(=O)Nc4nc5ccccc5s4)c3C2)nc1C(=O)O (centres unmarked)	A (Ymin < 30%)
Cn1nc(C2CCC(=O)NC2=O)c2ccc(NC(=O)CN3CCC(CCCOc4cccc(-c5ccc(N6CCc7cccc(C(=O)Nc8nc9ccccc9s8)c7C6)nc5C(=O)O)c4F)CC3)cc21 (centres unmarked)	B (30% ≤ Ymin < 50%)
Cc1c(OC2CC3(CCN(CC(=O)Nc4ccc5c(C6CCC(=O)NC6=O)nn(C)c5c4)CC3)C2)cccc1-c1ccc(N2CCc3ccnc(C(=O)Nc4nc5ccccc5s4)c3C2)nc1C(=O)O (centres unmarked)	B (30% ≤ Ymin < 50%)

Query block: Can you look up the measured Ymin (24 h) of Cc1cc(OC2CC3(CCN(CC(=O)Nc4ccc5c(C6CCC(=O)NC6=O)nn(C)c5c4)CC3)C2)ccc1-c1ccc(N2CCc3cccc(C(=O)Nc4nc5ccccc5s4)c3C2)nc1C(=O)O (centres unmarked) for me?
Result block: A (Ymin < 30%)
